Reference for the values: paper PMC10342010

system: HEK293 cells; test: Cytotoxic activity (MTT assay); type: cell-based, human; details: HEK293, MTT, 24 h; read-out: Cytotoxicity, IC50 HEK293
Consider the following compounds and their measured IC50 readings.
Give the quantity in µM, number only.

{"Compound": "COC1C(O)C(CO)OC(OC2C(O)COC(OC3C(C)OC(OC4C(OC5CCC6(C)C7CCC89C(=O)OC(C)(CC(=O)CC(C)C)C8C(OC(C)=O)CC9(C)C7=CCC6C5(C)C)OCC(OS(=O)(=O)[O-])C4O)C(O)C3O)C2O)C1O.[Na+] (centres unmarked) [okhotoside A1-1]", "Target desc": "HEK293 cells", "IC50 / µM": 3.17}

Here is the next item to consider.
Input: What IC50 value was documented for this compound, CO[C@@H]1[C@@H](O)[C@H](O[C@@H]2[C@@H](O)[C@H](O[C@H]3[C@H](O)[C@@H](O[C@H]4OC[C@H](O)[C@H](O)[C@@H]4O)[C@H](O[C@H]4[C@H](O[C@H]5CC[C@]6(C)[C@@H]7CC[C@]89C(=O)O[C@@](C)(C[C@@H](O)CC(C)C)[C@H]8[C@@H](OC(C)=O)C[C@@]9(C)C7=CC[C@H]6C5(C)C)OC[C@@H](OS(=O)(=O)O)[C@@H]4O)O[C@@H]3C)OC[C@H]2O)O[C@H](CO)[C@H]1O [frondoside D] ?
Output: 9.45
